Kindly state binding signal for each of the entries shown.
# target entity: AGO2 F182del (Homo sapiens, UniProt Q9UKV8 1-859, S387D;S824A;S828D;S831D;S834A;del182-182)
# Sequence (Q9UKV8 other isoform, or with tags, fused parts or gaps S387D;S824A;S828D;S831D;S834A;del182-182): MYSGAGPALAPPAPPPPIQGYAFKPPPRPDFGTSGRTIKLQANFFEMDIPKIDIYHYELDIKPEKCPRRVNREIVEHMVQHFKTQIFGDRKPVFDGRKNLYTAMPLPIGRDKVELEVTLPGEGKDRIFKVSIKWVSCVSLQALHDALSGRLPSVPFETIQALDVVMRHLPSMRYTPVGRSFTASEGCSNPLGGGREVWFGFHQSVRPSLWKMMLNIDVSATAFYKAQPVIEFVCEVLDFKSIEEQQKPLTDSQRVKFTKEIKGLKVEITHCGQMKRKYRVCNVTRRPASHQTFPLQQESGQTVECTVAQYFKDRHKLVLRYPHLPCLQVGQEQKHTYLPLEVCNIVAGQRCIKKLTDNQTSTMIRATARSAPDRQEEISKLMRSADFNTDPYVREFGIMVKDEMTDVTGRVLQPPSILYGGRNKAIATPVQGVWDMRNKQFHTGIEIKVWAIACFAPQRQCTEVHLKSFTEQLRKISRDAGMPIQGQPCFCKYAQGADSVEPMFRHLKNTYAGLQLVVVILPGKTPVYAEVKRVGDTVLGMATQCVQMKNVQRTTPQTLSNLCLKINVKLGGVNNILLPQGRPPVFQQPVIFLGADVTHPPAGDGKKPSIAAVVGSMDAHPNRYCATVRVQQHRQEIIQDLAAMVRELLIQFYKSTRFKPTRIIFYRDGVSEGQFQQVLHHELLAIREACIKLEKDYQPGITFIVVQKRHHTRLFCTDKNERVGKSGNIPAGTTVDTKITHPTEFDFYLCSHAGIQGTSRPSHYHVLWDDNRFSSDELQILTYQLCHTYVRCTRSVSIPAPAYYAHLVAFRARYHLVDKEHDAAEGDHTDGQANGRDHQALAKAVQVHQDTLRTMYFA
# test name: RNA Bind-n-Seq (nitrocellulose filter binding and sequencing); miR-122 guide loaded in AGO2; 60 min incubation; 30 mM Tris pH 8.0, 100 mM potassium acetate, 2 mM magnesium acetate, 0.5 mM TCEP, 0.005% NP-40, 0.01 mg/ml yeast tRNA; 3 nM AGO2-miR-122, 100 nM RNA library; 60; high values mean tight binding
# condition context: protein: recombinant; tags: His6 (N-terminal, pFastBac HTA)

{"binder": "GTATCCCA (ssRNA, constant regions annealed to DNA blockers; guide miR-122 5' phosphate) RNA 1: GAGUUCUACAGUCCGACGAUCCCAACGUAUCCCACACCUGGAAUUCUCGGGUGCCAA RNA 2: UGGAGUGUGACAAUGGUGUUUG DNA 1: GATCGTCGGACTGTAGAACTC DNA 2: TTGGCACCCGAGAATTCCA", "measured": "0.832 fold enrichment over input"}
{"binder": "GCACTCCA (ssRNA, constant regions annealed to DNA blockers; guide miR-122 5' phosphate) RNA 1: GAGUUCUACAGUCCGACGAUCCCAACGCACUCCACACCUGGAAUUCUCGGGUGCCAA RNA 2: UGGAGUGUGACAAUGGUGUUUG DNA 1: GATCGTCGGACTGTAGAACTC DNA 2: TTGGCACCCGAGAATTCCA", "measured": "91.6 fold enrichment over input"}
{"binder": "ATGTTCCA (ssRNA, constant regions annealed to DNA blockers; guide miR-122 5' phosphate) RNA 1: GAGUUCUACAGUCCGACGAUCCCAACAUGUUCCACACCUGGAAUUCUCGGGUGCCAA RNA 2: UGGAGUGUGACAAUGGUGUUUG DNA 1: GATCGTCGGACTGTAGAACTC DNA 2: TTGGCACCCGAGAATTCCA", "measured": "0.701 fold enrichment over input"}
{"binder": "ATACTCCG (ssRNA, constant regions annealed to DNA blockers; guide miR-122 5' phosphate) RNA 1: GAGUUCUACAGUCCGACGAUCCCAACAUACUCCGCACCUGGAAUUCUCGGGUGCCAA RNA 2: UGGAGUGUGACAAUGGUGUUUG DNA 1: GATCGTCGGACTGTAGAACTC DNA 2: TTGGCACCCGAGAATTCCA", "measured": "3.65 fold enrichment over input"}

Please look at the following binder next.
## Task Value lookup for binding signal; key = ACGTCTCA (ssRNA, constant regions annealed to DNA blockers; guide miR-122 5' phosphate) RNA 1: GAGUUCUACAGUCCGACGAUCCCAACACGUCUCACACCUGGAAUUCUCGGGUGCCAA RNA 2: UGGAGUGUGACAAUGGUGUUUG DNA 1: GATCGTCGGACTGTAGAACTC DNA 2: TTGGCACCCGAGAATTCCA
## Result 1.38 fold enrichment over input
